Below, log10 IC50 values reported for Aldo-keto reductase family 1 member B1 (Bos taurus) across several publications.
Heads up, the numbers here are log10 of IC50 in nM units.

Please review the entries below; each comes with its answer.
O=C(O)CCn1nc2c(cc1=O)CCc1ccccc1-2 : 5.12
CCCCOC(=O)COc1cc(O)c2c(=O)cc(-c3ccc4c(c3)OCCO4)oc2c1 : 2.72
O=C(CN1C(=O)S/C(=C\c2cccc(Oc3ccccc3)c2)C1=O)NO : 4.10
O=C(O)CN1C(=O)/C(=C/c2ccc(Oc3ccccc3)cc2)SC1=S : 2.04
O=C1NC(=S)S/C1=C\c1cccc2ccccc12 : 3.36

Report log10 IC50 for each item below.
1. COc1cc2c(cc1OC)-c1nn(CCC(=O)O)c(=O)cc1CC2
2. O=c1cc(-c2ccccc2)oc2cc(OCCO[N+](=O)[O-])cc(O)c12
3. O=c1cc(-c2ccc3c(c2)OCCO3)oc2cc(OCCCCCCO[N+](=O)[O-])cc(O)c12
4. O=C(CCO[N+](=O)[O-])OCOc1cc(O)c2c(=O)cc(-c3ccccc3)oc2c1
5. O=C1S/C(=C\c2ccc(Oc3ccccc3)cc2)C(=O)N1CC(=O)C(F)(F)F
6. COc1cc2c(cc1OC)-c1nn(CC(=O)O)c(=O)cc1C2
7. COc1ccc(/C=C2\SC(=S)N(CC(=O)O)C2=O)cc1OCC(N)=O

Reply:
[5.21, 2.69, 2.65, 2.48, 3.92, 4.42, 2.11]
